I'd be grateful if you could share measured IC50 for these entries.

## Input Recall the reported IC50 of CC#Cc1nc(SC2CCCC2)n(-c2cccnc2)c1COc1cc(F)c(C#CCO)c(F)c1 [Compound 41] when tested on p97 (Homo sapiens).
Sequence (P55072 whole entry): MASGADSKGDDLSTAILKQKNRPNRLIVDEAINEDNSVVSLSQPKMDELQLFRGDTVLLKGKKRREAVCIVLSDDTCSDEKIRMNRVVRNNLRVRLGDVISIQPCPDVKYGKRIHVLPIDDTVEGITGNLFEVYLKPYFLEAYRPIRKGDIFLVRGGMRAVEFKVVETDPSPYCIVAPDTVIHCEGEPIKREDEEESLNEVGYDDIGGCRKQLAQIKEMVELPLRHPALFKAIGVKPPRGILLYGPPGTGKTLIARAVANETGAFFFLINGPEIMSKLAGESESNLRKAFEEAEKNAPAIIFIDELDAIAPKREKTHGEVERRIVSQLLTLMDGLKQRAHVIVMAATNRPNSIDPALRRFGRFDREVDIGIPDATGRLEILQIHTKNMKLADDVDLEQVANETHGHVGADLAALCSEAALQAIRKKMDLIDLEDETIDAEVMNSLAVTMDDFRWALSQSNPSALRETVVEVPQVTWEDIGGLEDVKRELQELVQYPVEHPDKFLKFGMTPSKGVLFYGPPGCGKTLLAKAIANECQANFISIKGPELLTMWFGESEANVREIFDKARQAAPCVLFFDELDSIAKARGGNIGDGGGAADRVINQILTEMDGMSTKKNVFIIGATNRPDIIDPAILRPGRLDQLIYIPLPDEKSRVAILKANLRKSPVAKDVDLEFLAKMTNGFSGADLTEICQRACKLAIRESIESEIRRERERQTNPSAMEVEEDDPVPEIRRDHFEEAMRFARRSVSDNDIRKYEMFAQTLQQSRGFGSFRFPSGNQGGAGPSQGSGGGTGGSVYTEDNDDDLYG
## Output 40 nM

## Input Recall the reported IC50 of [2H]C1([2H])C([2H])([2H])C([2H])([2H])C([2H])(Sc2nc(Br)c(COc3ccc(C#CCOC(=O)NCCN4CCN(C(C)C)CC4)c(C)c3)n2-c2cccnc2)C1([2H])[2H] [Compound 21] when tested on p97 (Homo sapiens).
## Output 17 nM

## Input Recall the reported IC50 of Cc1cc(OCc2cnc(SC3C=CCCC3)n2-c2cccnc2)ccc1-c1ccc(S(C)(=O)=O)cc1 (stereo not shown) [Compound 31] when tested on p97 (Homo sapiens).
## Output 54 nM

## Input Recall the reported IC50 of Cc1cc(OCc2cnc(SC3C=CCCC3)n2-c2cccnc2)ccc1C#CCOC(=O)NC(C)C (stereo not shown) [Compound 14] when tested on p97 (Homo sapiens).
## Output 27 nM

## Input Recall the reported IC50 of Cc1cc(OCc2c(Cl)nc(SC3C=CCCC3)n2-c2cccnc2)ccc1C#CCO (stereo not shown) [Compound 18] when tested on p97 (Homo sapiens).
## Output 34 nM

## Input Recall the reported IC50 of Cc1cc(OCc2c(C#N)nc(SC3CCCC3)n2-c2cccnc2)ccc1C#CCO [Compound 22] when tested on p97 (Homo sapiens).
## Output 60 nM

## Input Recall the reported IC50 of Cc1cc(OCc2cnc(SC3C=CCCC3)n2-c2cccnc2)ccc1C#CCOC(=O)NCCN1CCN(C)CC1 (stereo not shown) [Compound 11] when tested on p97 (Homo sapiens).
## Output 20 nM

###

Observed IC50 values for UniProtKB P55072 are listed in what follows.
Value expressed in nM; do not type the unit.

## Input Item Cc1cc(OCc2cnc(SC3C=CCCC3)n2-c2cccnc2)ccc1C#CCO (centres unmarked) : provide IC50
## Output 37

## Input Item Cc1cc(OCc2c(C(C)(C)O)nc(SC3CCCC3)n2-c2cccnc2)ccc1C#CCO : provide IC50
## Output 250

## Input Item CC#Cc1nc(SC2CCCC2)n(-c2cccnc2)c1COc1cc(F)c(C#CCOC(=O)NC2CCN(C)CC2)c(F)c1 : provide IC50
## Output 20

## Input Item Cc1cc(OCc2cnc(SC3C=CCCC3)n2-c2cccnc2)ccc1C#CCOC(=O)NC1CCOCC1 (centres unmarked) : provide IC50
## Output 34

## Input Item CCOC(=O)c1nc(SC2CCCC2)n(-c2cccnc2)c1COc1ccc(C#CCO)c(C)c1 : provide IC50
## Output 50

## Input Item [2H]C1([2H])C([2H])([2H])C([2H])([2H])C([2H])(Sc2ncc(COc3cc(F)c(C#CCO)c(F)c3)n2-c2cccnc2)C1([2H])[2H] : provide IC50
## Output 56

## Input Item [2H]C1([2H])C([2H])([2H])C([2H])([2H])C([2H])(Sc2ncc(COc3cc(F)c(C#CCOC(=O)NC4CCN(C)CC4)cc3F)n2-c2cccnc2)C1([2H])[2H] : provide IC50
## Output 8

## Input Item Cc1cc(OCc2c(Br)nc(SC3CC3)n2-c2cccnc2)ccc1C#CCOC(=O)N1CCN(C(C)C)CC1 : provide IC50
## Output 57
